Measured BAF3-KDR (MIN IL3) pIC50 of individual entries
target: Ba/F3-KDR-transfected cells (Homo sapiens); construct: BAF3-KDR (MIN IL3) pIC50; other: minus IL3; assay: Ba/F3-KDR (minus IL3) cellular proliferation assay, Alamar Blue; format: cell-based
Sequence (P35968 whole entry, change not shown): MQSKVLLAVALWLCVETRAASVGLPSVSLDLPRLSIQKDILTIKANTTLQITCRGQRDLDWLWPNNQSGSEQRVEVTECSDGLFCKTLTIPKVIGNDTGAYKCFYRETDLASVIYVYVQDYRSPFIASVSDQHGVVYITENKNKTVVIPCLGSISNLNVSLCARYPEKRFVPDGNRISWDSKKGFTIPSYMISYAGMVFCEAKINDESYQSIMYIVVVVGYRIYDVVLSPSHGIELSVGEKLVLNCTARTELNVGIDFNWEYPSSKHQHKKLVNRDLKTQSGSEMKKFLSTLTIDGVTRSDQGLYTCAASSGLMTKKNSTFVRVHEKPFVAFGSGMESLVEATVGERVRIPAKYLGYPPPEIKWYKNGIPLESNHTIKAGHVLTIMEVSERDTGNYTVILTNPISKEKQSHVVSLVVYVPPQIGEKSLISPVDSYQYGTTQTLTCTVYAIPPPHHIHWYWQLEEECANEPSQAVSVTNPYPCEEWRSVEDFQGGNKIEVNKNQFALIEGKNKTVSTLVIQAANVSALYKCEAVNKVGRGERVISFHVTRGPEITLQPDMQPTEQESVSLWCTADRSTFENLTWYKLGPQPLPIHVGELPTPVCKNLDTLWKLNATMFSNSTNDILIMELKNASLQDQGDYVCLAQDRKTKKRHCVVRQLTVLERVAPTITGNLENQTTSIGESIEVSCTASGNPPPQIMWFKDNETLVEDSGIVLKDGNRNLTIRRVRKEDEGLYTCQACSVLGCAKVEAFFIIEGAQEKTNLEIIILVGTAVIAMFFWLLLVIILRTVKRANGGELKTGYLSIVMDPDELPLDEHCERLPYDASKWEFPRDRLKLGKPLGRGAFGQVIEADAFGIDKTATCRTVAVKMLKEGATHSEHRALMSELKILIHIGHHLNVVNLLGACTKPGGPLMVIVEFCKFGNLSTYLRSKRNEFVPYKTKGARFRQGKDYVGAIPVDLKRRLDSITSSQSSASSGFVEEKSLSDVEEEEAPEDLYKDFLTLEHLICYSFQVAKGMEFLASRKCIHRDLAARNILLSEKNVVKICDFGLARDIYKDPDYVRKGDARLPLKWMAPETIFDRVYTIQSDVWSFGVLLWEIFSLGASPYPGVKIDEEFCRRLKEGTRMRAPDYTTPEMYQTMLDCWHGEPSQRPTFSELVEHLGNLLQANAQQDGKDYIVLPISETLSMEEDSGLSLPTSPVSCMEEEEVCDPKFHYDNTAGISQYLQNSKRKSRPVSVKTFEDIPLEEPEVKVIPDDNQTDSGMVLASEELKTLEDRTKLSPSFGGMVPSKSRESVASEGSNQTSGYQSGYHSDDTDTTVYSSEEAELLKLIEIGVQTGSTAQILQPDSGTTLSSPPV
Could you keep your reply to the number by itself?

Example results:
COc1cc(OC)c(F)c(N(Cc2nccn2C)c2ccc3ncc(-c4cnn(C)c4)nc3n2)c1 [Compound 131] : 5.50
COCC(O)Cn1c(=Nc2c(F)c(OC)cc(OC)c2F)ccc2ncc(-c3cnn(C)c3)nc21 (stereo not shown) [Compound 51] : 5.93
COc1cc(OC)cc(N(Cc2ncc[nH]2)c2ccc3ncc(-c4cccnc4)nc3n2)c1 [Compound 182] : 5.48

Shift focus to the following entry.
Form: Entry = COc1cc(OC)c(F)c(N(Cc2cc(C)no2)c2ccc3ncc(-c4cnn(C)c4)nc3n2)c1 [Compound 185] | System = Ba/F3-KDR-transfected cells (Homo sapiens) | BAF3-KDR (MIN IL3) pIC50 = ____
5.51
